# test name: Cytotoxicity assay in cells stably expressing PARS1 mutant
# condition info: human, Cytotoxicity, % of control, average, WI-26 VA4 Flag-PARS1 FA/EA/RL; 100000 nM
assay endpoint: activity at 72 h, 100 µM
Put your answer as a value accompanied by its unit after it.

Could you share which activity at 72 h, 100 µM value was measured for O[C@H]1CCCN[C@@H]1CCCn1cnc2c(Cl)c(Cl)ccc21 [DWN12088] ?
20.1%

====

# test name: in vitro
# condition info: human, Cytotoxicity, % of control, average
assay endpoint: activity at 72 h, 0.003 µM (%)
Numbers only, in %.

Could you share which activity at 72 h, 0.003 µM value was measured for O=C(CC1NCCCC1O)Cn1cnc2cc(Br)c(Cl)cc2c1=O (stereo not shown) [HF, Halofuginone, reference compound] ?
109
